Data provenance is paper PMC3475454.

# TEST TARGET: firefly luciferase (Photinus pyralis, UniProt P08659)
# Sequence (P08659 whole entry): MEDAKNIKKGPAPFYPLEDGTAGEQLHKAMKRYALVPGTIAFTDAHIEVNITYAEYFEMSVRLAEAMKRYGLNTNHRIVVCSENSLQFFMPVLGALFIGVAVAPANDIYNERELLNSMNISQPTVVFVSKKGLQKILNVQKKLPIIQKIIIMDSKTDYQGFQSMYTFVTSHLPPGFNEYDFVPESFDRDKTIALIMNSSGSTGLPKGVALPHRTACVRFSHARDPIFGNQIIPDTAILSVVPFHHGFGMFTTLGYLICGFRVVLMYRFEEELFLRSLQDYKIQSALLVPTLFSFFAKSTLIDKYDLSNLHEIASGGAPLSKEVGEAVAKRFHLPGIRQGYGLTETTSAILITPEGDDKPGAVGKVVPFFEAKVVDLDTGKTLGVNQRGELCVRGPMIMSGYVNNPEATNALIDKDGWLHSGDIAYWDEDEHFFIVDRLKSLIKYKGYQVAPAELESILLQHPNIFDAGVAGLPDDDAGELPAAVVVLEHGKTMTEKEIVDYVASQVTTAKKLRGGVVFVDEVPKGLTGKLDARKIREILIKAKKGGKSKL
# PROCEDURE TEXT: Firefly luciferase activity assay in cell lysates, compound added to lysate
# Type: biochemical
# SETTINGS: IC50 for firefly luciferase inhibition, lysate of 55.1cSTF K65 cells
pIC50: −log10 of the molar value.
READOUT KIND: pIC50

INSERT INTO results (molecule, readout_number) VALUES
  ('COc1ccc(/C=C/c2ccccc2F)cc1 [NFκBAI4, (E)-2-fluoro-4′-methoxystilbene]', 5.85);

###

# TEST TARGET: firefly luciferase (Photinus pyralis, UniProt P08659)
# PROCEDURE TEXT: Firefly luciferase activity assay in cell lysates, compound added to lysate
# Format: biochemical
# SETTINGS: IC50 for firefly luciferase inhibition, lysate of 70.4STF K15 cells
READOUT KIND: IC50

INSERT INTO assay_data (compound, result) VALUES
  ('COc1ccc(/C=C/c2ccccc2F)cc1 [NFκBAI4, (E)-2-fluoro-4′-methoxystilbene]', '850 nM');

###

# TEST TARGET: UniProt P08659
# PROCEDURE TEXT: Firefly luciferase activity assay in cell lysates, compound added to lysate
# Format: biochemical
# SETTINGS: IC50 for firefly luciferase inhibition, reaction buffer without coenzyme A; results not shown
pIC50: −log10 of the molar value.
READOUT KIND: pIC50

INSERT INTO measurements (molecule, test_target, result) VALUES
  ('COc1ccc(/C=C/c2ccccc2F)cc1 [NFκBAI4, (E)-2-fluoro-4′-methoxystilbene]', 'UniProt P08659', '~6.00');
